# protocol-text: AUC(0 to t) in male Sprague-Dawley rat at 200 mg/kg, po measured after 18 hrs LC/MS-MS analysis
# Assay type: ADME, organism-based
# condition-label: in vivo
observation-type: AUC(0-t) at 18 h (ng·h/mL)
Lab book: enter the figure in ng·h/mL, no units written.

Qu. Please look up its AUC(0-t) at 18 h: CC(C)[Si](O[C@H]1CC[C@H]2[C@@H]3CC(CN4CCC[C@H]4CO)C(=O)O[C@@H]3CC[C@]12C)(C(C)C)C(C)C (stereo partly specified)
Ans. 19600

====

# Test system: NCI-H460
# protocol-text: Antiproliferative activity against human NCI-H460 cells assessed as inhibition of cell proliferation incubated for 72 hrs by CCK-8 assay
# Assay type: functional, cell-based
# condition-label: NCI-H460, 72 h
observation-type: pIC50
Give only the number. pIC50 is defined as minus log10 of concentration in molar units.

Qu. Please look up its pIC50: C=C1C[C@@H]2[C@@H](CC[C@]3(C)[C@@H](O[Si](C(C)C)(C(C)C)C(C)C)CC[C@@H]23)OC1=O
Ans. 5.55
